# Organism: Rattus norvegicus
# assayProtocol: Open TG-GATES - Regimen: Daily Repeat
# Type: toxicity, organism-based, Sprague-Dawley
# Design: regimen Daily Repeat, gender Male, age 6 weeks
# conditionInfo: in vivo, po, 300 mg/kg, 72 h, tissue Plasma, route gavage, dose level Middle, time 3 day
recordedEndpoint: TBIL (mg/dL)
One number for each entry, in mg/dL.

molecule | recordedResult
CCN1CCCC1CNC(=O)c1cc(S(N)(=O)=O)ccc1OC (centres undefined) [SULPIRIDE] | 0.056
O=C(O)c1cccnc1 [NIACIN] | 0
CC(C)(S)[C@@H](N)C(=O)O [PENICILLAMINE] | 0.028

Proceed to the following item.
-- ask Fill blank: measured TBIL of the molecule O=C(N[C@H](CO)[C@H](O)c1ccc([N+](=O)[O-])cc1)C(Cl)Cl [CHLORAMPHENICOL] is ____.
-- reply 0.052

----------
Task for the reader: assign each of the following molecules its reported CRE.
# Species on record: Rattus norvegicus
# assayProtocol: Open TG-GATES - Regimen: Daily Repeat
# Format: toxicity, organism-based, Sprague-Dawley
# Design: regimen Daily Repeat, gender Male, age 6 weeks
# conditionInfo: in vivo, po, 100 mg/kg, 72 h, tissue Plasma, route gavage, dose level Low, time 3 day
One number for each entry, in mg/dL.

molecule | measurementUnits | CRE
CCN1CCCC1CNC(=O)c1cc(S(N)(=O)=O)ccc1OC (centres undefined) [SULPIRIDE] | mg/dL | 0.2
CC(C)(S)[C@@H](N)C(=O)O [PENICILLAMINE] | mg/dL | 0.2
O=C(N[C@H](CO)[C@H](O)c1ccc([N+](=O)[O-])cc1)C(Cl)Cl [CHLORAMPHENICOL] | mg/dL | 0.2

Let us move to another entry and its CRE.
-- ask Would you mind telling me what CRE value was observed for O=C(O)c1cccnc1 [NIACIN] ?
-- reply 0.1

----------
# Organism: Rattus norvegicus
# assayProtocol: Open TG-GATES - Regimen: Single
# Assay type: toxicity, organism-based, Sprague-Dawley
# Parameters: regimen Single, gender Male, age 6 weeks
# conditionInfo: in vivo, po, 0 mg/kg, 24 h, tissue Plasma, route gavage, dose level Control
Assignment: determine reported Ca for the given molecules.
Numbers only, in mg/dL.

Use the examples below as a reference point.
molecule | measurementUnits | Ca
CN1C(=O)OC(C)(C)C1=O | mg/dL | 10.9
O=C(N[C@H](CO)[C@H](O)c1ccc([N+](=O)[O-])cc1)C(Cl)Cl | mg/dL | 11.7
C[C@]12CCC(=O)C=C1CC[C@@H]1[C@@H]2CC[C@@]2(C)[C@H]1CC[C@]2(C)O | mg/dL | 11.1

// for each molecule below, give its Ca
1. CCN1CCCC1CNC(=O)c1cc(S(N)(=O)=O)ccc1OC (stereo not drawn) [SULPIRIDE]
2. CCc1oc2ccccc2c1C(=O)c1cc(I)c(O)c(I)c1
3. CC(C)C(=O)Nc1ccc([N+](=O)[O-])c(C(F)(F)F)c1 [FLUTAMIDE]
4. O=C(O)c1cccnc1
5. CCC(C)(C)C(=O)O[C@H]1C[C@@H](C)C=C2C=C[C@H](C)[C@H](CC[C@@H]3C[C@@H](O)CC(=O)O3)[C@H]21

-- reply
1. 10.9
2. 10.7
3. 10.3
4. 10.6
5. 10.8

----------
# Species: Rattus norvegicus
# assayProtocol: Open TG-GATES - Regimen: Daily Repeat
# Type: toxicity, organism-based, Sprague-Dawley
# Set-up: regimen Daily Repeat, gender Male, age 6 weeks
# conditionInfo: in vivo, po, 300 mg/kg, […], tissue Plasma, route gavage, dose level Middle, time 14 day
Answer each item with its documented ALP.
The number alone won't do; follow it with the unit.

molecule | recordedResult
O=C(O)c1cccnc1 | 1495.2 IU/L
CC(C)(S)[C@@H](N)C(=O)O | 1395 IU/L
O=C(N[C@H](CO)[C@H](O)c1ccc([N+](=O)[O-])cc1)C(Cl)Cl | 1504.6 IU/L

Next up:
-- ask // query ALP value for entry CCN1CCCC1CNC(=O)c1cc(S(N)(=O)=O)ccc1OC (centres undefined) [SULPIRIDE]
-- reply 1350 IU/L

----------
# Organism: Rattus norvegicus
# assayProtocol: Open TG-GATES - Regimen: Daily Repeat
# Type: toxicity, organism-based, Sprague-Dawley
# Design: regimen Daily Repeat, gender Male, age 6 weeks
# conditionInfo: in vivo, po, 300 mg/kg, […], tissue Plasma, route gavage, dose level Middle, time 14 day
recordedEndpoint: DBIL (mg/dL)
Answers are plain numbers, in mg/dL.

Examples with their reported DBIL follow.
molecule | recordedResult
CC(C)(S)[C@@H](N)C(=O)O [PENICILLAMINE] | 0.008
O=C(O)c1cccnc1 [NIACIN] | 0
O=C(N[C@H](CO)[C@H](O)c1ccc([N+](=O)[O-])cc1)C(Cl)Cl [CHLORAMPHENICOL] | 0.024

-- ask For CCN1CCCC1CNC(=O)c1cc(S(N)(=O)=O)ccc1OC (centres undefined) [SULPIRIDE] , what is its reported DBIL?
-- reply 0.014

----------
# Organism: Rattus norvegicus
# assayProtocol: Open TG-GATES - Regimen: Single
# Type: toxicity, organism-based, Sprague-Dawley
# Parameters: regimen Single, gender Male, age 6 weeks
# conditionInfo: in vivo, po, 0 mg/kg, 9 h, tissue Blood, route gavage, dose level Control
Task for the reader: assign each of the following compounds its reported PT.
Answers are plain numbers, in s.

Consider the worked cases shown below.
compound | recordedResult
CC(C)(S)[C@@H](N)C(=O)O | 14.5
CCSCC[C@H](N)C(=O)O | 13
CCc1oc2ccccc2c1C(=O)c1cc(I)c(O)c(I)c1 | 12.3
CC(C)C(=O)Nc1ccc([N+](=O)[O-])c(C(F)(F)F)c1 [FLUTAMIDE] | 13.2
C[C@](N)(Cc1ccc(O)c(O)c1)C(=O)O | 13.6

Now for another entry.
-- ask # get_value(readout='PT', item= O=C(N[C@H](CO)[C@H](O)c1ccc([N+](=O)[O-])cc1)C(Cl)Cl )
-- reply 14.5

----------
# Organism: Rattus norvegicus
# assayProtocol: Open TG-GATES - Regimen: Daily Repeat
# Format: toxicity, organism-based, Sprague-Dawley
# Design: regimen Daily Repeat, gender Male, age 6 weeks
# conditionInfo: in vivo, po, 300 mg/kg, […], tissue Blood, route gavage, dose level Middle, time 28 day
Consider the following compounds; for each one, report its MCHC.
One number for each entry, in %.

compound | MCHC (%)
CCN1CCCC1CNC(=O)c1cc(S(N)(=O)=O)ccc1OC (centres undefined) [SULPIRIDE] | 34.5

Please state MCHC for every compound in the list that follows.
1. CC(C)(S)[C@@H](N)C(=O)O
2. O=C(N[C@H](CO)[C@H](O)c1ccc([N+](=O)[O-])cc1)C(Cl)Cl

-- reply
1: 33.8; 2: 34.1

-- ask Entry O=C(O)c1cccnc1 has what MCHC?
-- reply 35.3

----------
# Species on record: Rattus norvegicus
# assayProtocol: Open TG-GATES - Regimen: Daily Repeat
# Type: toxicity, organism-based, Sprague-Dawley
# Parameters: regimen Daily Repeat, gender Male, age 6 weeks
# conditionInfo: in vivo, po, 300 mg/kg, […], tissue Blood, route gavage, dose level Middle, time 7 day
recordedEndpoint: Plat (x10_4/uL)
Answers are plain numbers, in x10_4/uL.

Example results:
compound | Plat, x10_4/uL
O=C(N[C@H](CO)[C@H](O)c1ccc([N+](=O)[O-])cc1)C(Cl)Cl | 120.6
O=C(O)c1cccnc1 | 112.8
CCN1CCCC1CNC(=O)c1cc(S(N)(=O)=O)ccc1OC (centres undefined) [SULPIRIDE] | 123.9

Next:
-- ask Please look up its Plat: CC(C)(S)[C@@H](N)C(=O)O
-- reply 122.4

----------
# Species: Rattus norvegicus
# assayProtocol: Open TG-GATES - Regimen: Daily Repeat
# Assay type: toxicity, organism-based, Sprague-Dawley
# Design: regimen Daily Repeat, gender Male, age 6 weeks
# conditionInfo: in vivo, po, 100 mg/kg, 72 h, tissue Plasma, route gavage, dose level Low, time 3 day
recordedEndpoint: DBIL (mg/dL)
Give bare numbers, in mg/dL.

Previously resolved entries follow.
molecule | DBIL, mg/dL
O=C(O)c1cccnc1 [NIACIN] | 0
CCN1CCCC1CNC(=O)c1cc(S(N)(=O)=O)ccc1OC (centres undefined) [SULPIRIDE] | 0.01
O=C(N[C@H](CO)[C@H](O)c1ccc([N+](=O)[O-])cc1)C(Cl)Cl [CHLORAMPHENICOL] | 0.02

Shift focus to the following entry.
-- ask Return reported DBIL; argument: CC(C)(S)[C@@H](N)C(=O)O [PENICILLAMINE]
-- reply 0.014
